studyTarget: recombinant human plasminogen activator inhibitor-1 (PAI-1) (Homo sapiens)
Construct: purchased Molecular Innovations, Royal Oak, Mich
Sequence (P05121 24-402): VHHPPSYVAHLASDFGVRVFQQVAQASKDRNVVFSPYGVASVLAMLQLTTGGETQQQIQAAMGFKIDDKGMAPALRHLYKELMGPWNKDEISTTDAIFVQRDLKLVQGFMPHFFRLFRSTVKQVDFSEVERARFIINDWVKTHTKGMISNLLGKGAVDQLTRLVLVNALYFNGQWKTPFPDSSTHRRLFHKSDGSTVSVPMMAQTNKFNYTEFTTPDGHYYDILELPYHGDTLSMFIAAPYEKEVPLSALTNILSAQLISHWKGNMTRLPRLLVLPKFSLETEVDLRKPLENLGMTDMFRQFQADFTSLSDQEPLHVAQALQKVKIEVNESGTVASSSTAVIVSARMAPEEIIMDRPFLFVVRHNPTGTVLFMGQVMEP
experimentNotes: Screening for PAI-1 inhibition (chromogenic tPA activity assay, Spectrozyme-tPA)
Assay type: biochemical
conditionDescription: PAI-1 inhibition at 25 μM test compound; pH 6.6 buffer, 140 nM PAI-1, 70 nM tPA
readoutKind: inhibition at 25 µM (%)
I only need the number, in %, no unit after it.

Input line: // fetch recombinant human plasminogen activator inhibitor-1 (PAI-1) (Homo sapiens) inhibition at 25 µM for "CC(=NOCCCOc1ccc(CC(=O)O)cc1)c1ccc(C(C)(C)C)cc1"
Output line: 39

Input line: // fetch recombinant human plasminogen activator inhibitor-1 (PAI-1) (Homo sapiens) inhibition at 25 µM for "C/C(=N\OCCOc1ccc(C(=O)O)c(Cl)c1)c1ccc(C(C)(C)C)cc1"
Output line: 34

Input line: // fetch recombinant human plasminogen activator inhibitor-1 (PAI-1) (Homo sapiens) inhibition at 25 µM for "O=C(O)c1ccc(OCCCO/N=C/c2ccc(-c3ccccc3)cc2)cc1NC(=O)c1ccccc1C(F)(F)F"
Output line: 24

Input line: // fetch recombinant human plasminogen activator inhibitor-1 (PAI-1) (Homo sapiens) inhibition at 25 µM for "CC(C)(C)c1ccc(C=NOCCOc2ccc(C(=O)O)c(OCc3ccc(C(F)(F)F)cc3)c2)cc1"
Output line: 28

Input line: // fetch recombinant human plasminogen activator inhibitor-1 (PAI-1) (Homo sapiens) inhibition at 25 µM for "CC(C)(C)c1ccc(/C=N/OCCCOc2ccc(C(=O)O)c(NC(=O)/C=C/c3ccc(-c4ccccc4)cc3)c2)cc1"
Output line: 16

Input line: // fetch recombinant human plasminogen activator inhibitor-1 (PAI-1) (Homo sapiens) inhibition at 25 µM for "CC(C)(C)c1ccc(/C=N/OCCCOc2ccc(C(=O)O)c(NC(=O)c3ccc4ccccc4c3)c2)cc1"
Output line: 14

Input line: // fetch recombinant human plasminogen activator inhibitor-1 (PAI-1) (Homo sapiens) inhibition at 25 µM for "CC(C)(C)c1ccc(/C=N/OCCOc2ccc(C(=O)O)c(OC(=O)c3ccc(C(F)(F)F)cc3)c2)cc1"
Output line: 1

----------
Exercise: for every item that follows, state its recorded melting point.

Input line: Any idea what melting point was measured for "COc1ccc(C(=O)Oc2cc(OCCO/N=C/c3ccc(C(C)(C)C)cc3)ccc2C(=O)O)cc1" ?
Output line: 115.5 to 117.5 °C

Input line: Any idea what melting point was measured for "CC(C)(C)c1ccc(C=NOCCCOc2ccc(CC(=O)O)cc2)cc1" ?
Output line: 56.2 to 59.2 °C

Input line: Any idea what melting point was measured for "CC(C)(C)c1ccc(/C=N/OCCCOc2ccc(CCC(=O)O)cc2)cc1" ?
Output line: 101.2 to 102.1 °C

Input line: Any idea what melting point was measured for "CC(C)(C)c1ccc(C=NOCCOc2ccc(C(=O)O)c(O)c2)cc1" ?
Output line: 161.4 to 162.7 °C

Input line: Any idea what melting point was measured for "O=C(Nc1cc(OCCCO/N=C/c2ccc(-c3ccccc3)cc2)ccc1C(=O)O)c1ccc(C(F)(F)F)cc1" ?
Output line: 205.6 to 206.6 °C

Input line: Any idea what melting point was measured for "O=C(Nc1cc(OCCCO/N=C/c2ccc(C(F)(F)F)cc2)ccc1C(=O)O)c1cc(C(F)(F)F)cc(C(F)(F)F)c1" ?
Output line: 218 to 219 °C (dec.)

Input line: Any idea what melting point was measured for "CC/C(=N\OCCCOc1ccc(C(=O)O)c(NC(=O)c2ccc(C(F)(F)F)cc2)c1)c1ccc(C(C)(C)C)cc1" ?
Output line: 149.4 to 151 °C

Input line: Any idea what melting point was measured for "O=C(Nc1cc(OCCCO/N=C/c2cc(C(F)(F)F)cc(C(F)(F)F)c2)ccc1C(=O)O)c1ccc(OC(F)(F)F)cc1" ?
Output line: 184.5 to 185.5 °C

Input line: Any idea what melting point was measured for "CC(C)(C)c1ccc(/C=N/OCCOc2ccc(C(=O)O)c(OC(=O)c3ccccc3)c2)cc1" ?
Output line: 129.3 to 130.6 °C

Input line: Any idea what melting point was measured for "CC(C)(C)c1ccc(/C=N/OCCOc2ccc(C(=O)O)c(OC(=O)c3ccc(C(C)(C)C)cc3)c2)cc1" ?
Output line: 148.1 to 150.1 °C

Input line: Any idea what melting point was measured for "O=C(O)c1ccc(OCCCO/N=C/c2cc(C(F)(F)F)cc(C(F)(F)F)c2)cc1O" ?
Output line: 181.9 to 183.4 °C

Input line: Any idea what melting point was measured for "CC(C)(C)c1ccc(/C=N/OCCOc2ccc(C(=O)O)c(OC(=O)c3ccc(C(F)(F)F)cc3)c2)cc1" ?
Output line: 146.3 to 147.9 °C

Input line: Any idea what melting point was measured for "CC(C)(C)c1ccc(/C=N/OCCCOc2ccc(C(=O)O)c(NC(=O)c3ccc(C(C)(C)C)cc3)c2)cc1" ?
Output line: 192.3 to 193.8 °C

Input line: Any idea what melting point was measured for "CC(C)(C)c1ccc(/C=N/OCCCOc2ccc(C(=O)O)c(NC(=O)/C=C/c3ccc(-c4ccccc4)cc3)c2)cc1" ?
Output line: 169 to 171 °C

Input line: Any idea what melting point was measured for "CC(C)(C)c1ccc(/C=N/OCCCOc2ccc(C(=O)O)c(NC(=O)c3ccc4ccccc4c3)c2)cc1" ?
Output line: 156 to 158 °C

Input line: Any idea what melting point was measured for "CC(C)(C)c1ccc(C=NOCc2ccc(CC(=O)O)cc2)cc1" ?
Output line: 93.3 to 96.2 °C

Input line: Any idea what melting point was measured for "C/C(=N\OCCOc1ccc(C(=O)O)c(OC(=O)c2ccc(-c3ccccc3)cc2)c1)c1ccccc1" ?
Output line: 157.5 to 159.1 °C

Input line: Any idea what melting point was measured for "C/C(=N\OCCOc1ccc(C(=O)O)c(O)c1)c1ccc(C(C)(C)C)cc1" ?
Output line: 157.4 to 158.7 °C

Input line: Any idea what melting point was measured for "O=C(O)c1ccc(OCCCO/N=C/c2ccc(-c3ccccc3)cc2)cc1NC(=O)c1ccccc1C(F)(F)F" ?
Output line: 170.5 to 172.5 °C

Input line: Any idea what melting point was measured for "O=C(O)c1ccc(OCCCO/N=C/c2ccc(C(F)(F)F)cc2)cc1NC(=O)c1ccccc1C(F)(F)F" ?
Output line: 147.2 to 147.9 °C

Input line: Any idea what melting point was measured for "CC(C)(C)c1ccc(/C=N/OCCCOc2ccc(C(=O)O)c(NC(=O)c3ccc(-c4ccccc4)cc3)c2)cc1" ?
Output line: 155 to 158.5 °C

Input line: Any idea what melting point was measured for "CC(C)(C)c1ccc(/C=N/OCCCOc2ccc(C(=O)O)c(NC(=O)c3ccccc3C(F)(F)F)c2)cc1" ?
Output line: 121.1 to 122 °C

Input line: Any idea what melting point was measured for "CC(=NOCCCOc1ccc(CC(=O)O)cc1)c1ccc(C(C)(C)C)cc1" ?
Output line: 98.7 to 99.7 °C

Input line: Any idea what melting point was measured for "C/C(=N\OCCOc1ccc(C(=O)O)cc1Cl)c1ccc(C(C)(C)C)cc1" ?
Output line: 167.1 to 168.8 °C

Input line: Any idea what melting point was measured for "CC(C)(C)c1ccc(C=NOCCOc2ccc(C(=O)O)c(OCc3ccc(C(F)(F)F)cc3)c2)cc1" ?
Output line: 164.1 to 164.8 °C

Input line: Any idea what melting point was measured for "CC(C)(C)c1ccc(/C=N/OCc2ccc(C(=O)O)c(Br)c2)cc1" ?
Output line: 162 to 163 °C

Input line: Any idea what melting point was measured for "C/C(=N\OCCOc1ccc(C(=O)O)c(Cl)c1)c1ccc(C(C)(C)C)cc1" ?
Output line: 142.7 to 143.9 °C

Input line: Any idea what melting point was measured for "O=C(Nc1cc(OCCCO/N=C/c2ccc(C(F)(F)F)cc2)ccc1C(=O)O)c1ccc(C(F)(F)F)cc1" ?
Output line: 208.6 to 209.6 °C

Input line: Any idea what melting point was measured for "C/C(=N\OCCCOc1ccc(C(=O)O)c(NC(=O)c2ccc(C(F)(F)F)cc2)c1)c1ccccc1" ?
Output line: 174.3 to 175.7 °C

Input line: Any idea what melting point was measured for "CC(C)(C)c1ccc(/C=N/OCCCOc2ccc(C(=O)O)c(NC(=O)c3cc(C(F)(F)F)cc(C(F)(F)F)c3)c2)cc1" ?
Output line: 157.5 to 158.5 °C

----------
Exercise: for every item that follows, state its recorded melting point.

Input line: Any idea what melting point was measured for O=C(Nc1cc(OCCCO/N=C/c2ccc(-c3ccccc3)cc2)ccc1C(=O)O)c1cc(C(F)(F)F)cc(C(F)(F)F)c1 [Compound 31] ?
Output line: 205 to 206 °C (dec.)

Input line: Any idea what melting point was measured for O=C(Nc1cc(OCCCO/N=C/c2ccc(-c3ccccc3)cc2)ccc1C(=O)O)c1ccc(OC(F)(F)F)cc1 [Compound 29] ?
Output line: 194.5 to 195.5 °C

Input line: Any idea what melting point was measured for CC(=NOCc1ccc(CC(=O)O)cc1)c1ccc(C(C)(C)C)cc1 [Compound 2] ?
Output line: 148.9 to 150 °C
